Assignment: determine reported pIC50 for the given compounds.
target: PRMT5 (Homo sapiens, UniProt O14744); construct: purchased Viva (custom protein); experiment: PRMT5 biochemical IC50 assay with no cofactor; conditions: PRMT5, no cofactor; read-out: No Cofactor/ rel IC50
Sequence (O14744 whole entry): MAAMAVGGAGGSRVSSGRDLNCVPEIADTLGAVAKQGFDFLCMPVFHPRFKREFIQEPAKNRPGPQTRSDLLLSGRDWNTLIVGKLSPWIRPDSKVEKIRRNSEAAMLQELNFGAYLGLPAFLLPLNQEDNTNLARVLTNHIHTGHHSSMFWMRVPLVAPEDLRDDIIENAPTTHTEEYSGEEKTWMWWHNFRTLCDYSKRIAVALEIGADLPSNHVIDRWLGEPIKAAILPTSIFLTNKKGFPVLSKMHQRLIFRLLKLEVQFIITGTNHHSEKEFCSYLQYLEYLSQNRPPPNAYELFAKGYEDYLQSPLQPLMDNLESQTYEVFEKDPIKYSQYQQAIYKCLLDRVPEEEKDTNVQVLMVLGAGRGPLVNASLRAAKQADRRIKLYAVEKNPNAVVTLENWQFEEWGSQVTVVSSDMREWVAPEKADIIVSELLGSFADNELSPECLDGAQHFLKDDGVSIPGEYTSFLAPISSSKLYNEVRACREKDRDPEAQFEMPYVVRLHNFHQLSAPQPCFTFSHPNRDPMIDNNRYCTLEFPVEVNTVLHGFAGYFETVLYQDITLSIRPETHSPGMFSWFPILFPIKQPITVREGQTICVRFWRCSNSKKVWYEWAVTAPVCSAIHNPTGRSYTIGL
Sequence (Q9BQA1 whole entry partner): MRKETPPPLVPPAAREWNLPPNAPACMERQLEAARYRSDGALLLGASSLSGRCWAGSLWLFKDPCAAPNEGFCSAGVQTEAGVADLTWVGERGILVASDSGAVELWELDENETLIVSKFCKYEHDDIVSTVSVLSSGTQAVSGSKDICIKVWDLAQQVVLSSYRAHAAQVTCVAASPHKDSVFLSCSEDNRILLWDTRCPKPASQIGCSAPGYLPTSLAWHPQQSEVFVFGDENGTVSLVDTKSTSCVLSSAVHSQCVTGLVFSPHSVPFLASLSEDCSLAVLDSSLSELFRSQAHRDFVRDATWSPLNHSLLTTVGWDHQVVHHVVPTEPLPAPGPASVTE
pIC50: −log10 of the molar value.

Record pIC50 per entry; entries follow.
1. Cc1cncc(NC(=O)C(=O)N2C[C@H](C)CC[C@H]2c2ccc3c(c2)CCCC3)c1 (racemic) [Compound 80]
2. NC(=O)c1cncc(NC(=O)C(=O)N2CCCCC2c2cccs2)c1 (stereo not shown) [Compound 120]
3. Cc1cc(NC(=O)C(=O)N2CCCC[C@H]2c2ccccc2)cnc1N (single isomer, unassigned) [Compound 55]
4. C[C@@H]1CC[C@H](c2ccccc2)N(C(=O)C(=O)Nc2cncc(C(N)=O)c2)[C@@H]1C (racemic) [Compound 163]
5. Cc1cc(NC(=O)C(=O)N2C[C@@H](C)[C@H](OC(C)C)C[C@@H]2c2ccccc2)cnc1N (single isomer, unassigned) [Compound 1327]

[out]
< 6.30
6.30 to 7.30
< 6.30
6.30 to 7.30
< 6.30

Record pIC50 per entry; entries follow.
1. C[C@@H]1CC[C@@H](C2CCC2)N(C(=O)C(=O)Nc2cncc(C(N)=O)c2)C1 (racemic) [Compound 155]
2. CCc1cc(NC(=O)C(=O)N2C[C@@H](C)CC[C@@H]2c2cccc(C[C@H]3CCCCN3C)c2)cnc1N (single isomer, unassigned) [Compound 1273]

[out]
1: 6.30 to 7.30; 2: > 7.30

----------
biological target: PRMT5 (Homo sapiens, UniProt O14744); construct: purchased Viva (custom protein); assay: PRMT5 biochemical IC50 assay with no cofactor; conditions: PRMT5, no cofactor; read-out: No Cofactor/rel IC50
ASSAY_READOUT: IC50

Sample records with IC50:
compound="Cc1cc(NC(=O)C(=O)N2C[C@H](C)CC[C@H]2c2cccc(S(C)(=O)=O)c2)cnc1N (racemic) [Compound 667]" observed="50 to 500 nM"
compound="Cc1cc(NC(=O)C(=O)N2C[C@H](C)C(F)(F)C[C@H]2c2ccc(F)c(F)c2)cnc1N (single isomer, unassigned) [Compound 684]" observed="> 500 nM"
compound="CCc1cc(NC(=O)C(=O)N2C[C@H](C)[C@H](OC)C[C@H]2c2ccc3scnc3c2)cnc1N (single isomer, unassigned) [Compound 1138]" observed="> 500 nM"

Record IC50 per entry; entries follow.
1. Cc1nc2cc([C@@H]3CC[C@H](C)CN3C(=O)C(=O)Nc3cnc(N)c(C)c3)ccc2o1 (single isomer, unassigned) [Compound 1170]
2. CCc1cc(NC(=O)C(=O)N2C[C@@H](C)CC[C@@H]2c2ccc(NC(C)=O)nc2)cnc1N (single isomer, unassigned) [Compound 925]
3. C[C@@H]1CN(C(=O)C(=O)Nc2cncc(C(N)=O)c2)[C@@H](c2ccccc2)CC1(F)F (single isomer, unassigned) [Compound 473]

[out]
< 50 nM
< 50 nM
> 500 nM

Record IC50 per entry; entries follow.
1. Cc1cnn(-c2ccc([C@@H]3CC[C@@H](C)CN3C(=O)C(=O)Nc3cncc(C(N)=O)c3)cc2)c1 (racemic) [Compound 218]
2. CNc1ccc([C@H]2CC[C@H](C)CN2C(=O)C(=O)Nc2cnc(OC)c(C(N)=O)c2)cn1 (single isomer, unassigned) [Compound 447]
3. C[C@@H]1CC[C@@H](c2cncc(Cl)c2)N(C(=O)C(=O)Nc2cncc(C(N)=O)c2)C1 (racemic) [Compound 791]
4. COc1ncc(NC(=O)C(=O)N2C[C@@H](C)CC[C@@H]2c2ccc3sc(N)nc3c2)cc1C(N)=O (racemic) [Compound 954]
5. C[C@H]1CC[C@H](c2ccc(C(F)(F)F)c(Cl)c2)N(C(=O)C(=O)Nc2cncc(C(N)=O)c2)C1 (single isomer, unassigned) [Compound 655]
6. C[C@@H]1CC[C@@H](c2ccc(Cl)c(Cl)c2)N(C(=O)C(=O)Nc2cncc(C(N)=O)c2)C1 (single isomer, unassigned) [Compound 489]

[out]
1: 50 to 500 nM; 2: < 50 nM; 3: 50 to 500 nM; 4: 50 to 500 nM; 5: 50 to 500 nM; 6: > 500 nM
